# IC50 per entry
Target: BRD3(BD1) (Homo sapiens, UniProt Q15059)
Construct: purchased BPS Bioscience
Sequence (Q15059 34-140 limits assumed): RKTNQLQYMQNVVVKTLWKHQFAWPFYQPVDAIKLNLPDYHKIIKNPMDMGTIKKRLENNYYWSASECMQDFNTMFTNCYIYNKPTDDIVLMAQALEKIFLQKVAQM
Test: HTRF bromodomain selectivity profile
Assay type: binding
Conditions: Table 3 selectivity profile
Your answer should be a plain number; it is taken to be in µM.

Solved entries (count: 3):
Cn1cnc2c1c(=O)[nH]c(=O)n2Cc1ccc(Cl)cc1 [Compound 4b]; 14
CCn1c(CSc2nc3nc(C)cc(C)n3n2)nc2c1c(=O)[nH]c(=O)n2Cc1ccc(Cl)cc1 [Compound 25a]; 40.7
CCn1cnc2c1c(=O)[nH]c(=O)n2Cc1ccc(Cl)cc1 [Compound 7a]; 1.8

BRD3(BD1) (Homo sapiens, UniProt Q15059) / IC50 / CCCCc1c(C)nc2nc(SCc3nc4c(c(=O)[nH]c(=O)n4CCCC)n3CC)nn2c1C [Compound 26b] : value?
62

BRD3(BD1) (Homo sapiens, UniProt Q15059) / IC50 / CCn1c(CSc2n[nH]c(N)n2)nc2c1c(=O)[nH]c(=O)n2Cc1ccc(Cl)cc1 [Compound 22a] : value?
31.7

BRD3(BD1) (Homo sapiens, UniProt Q15059) / IC50 / CCCCn1c(=O)[nH]c(=O)c2c1ncn2CC [Compound 6a, 3-Butyl-7-ethylxanthine] : value?
4.8

BRD3(BD1) (Homo sapiens, UniProt Q15059) / IC50 / CCc1cc(CC)n2nc(SCc3nc4c(c(=O)[nH]c(=O)n4Cc4ccc(Cl)cc4)n3CC)nc2n1 [Compound 26a] : value?
43.5

====

Target: BRD4(BD2) (Homo sapiens)
Construct: purchased BPS Bioscience
Experiment: HTRF bromodomain selectivity profile
Assay type: binding
Details: Table 3 selectivity profile
Experimental Endpoint: IC50 (µM)
Your answer should be a plain number; it is taken to be in µM.

Solved entries (count: 2):
Cn1cnc2c1c(=O)[nH]c(=O)n2Cc1ccc(Cl)cc1; 5
CCCCn1c(=O)[nH]c(=O)c2c1ncn2CC; 8.1

Continue with the next compound.
IC50 for "CCn1cnc2c1c(=O)[nH]c(=O)n2Cc1ccc(Cl)cc1" ?
1.9

====

Target: BRD4(BD1) (Homo sapiens)
Construct: a BRD4(BD1) synthetic gene that includes a TEV cleavage site was purchased from LifeTechnology; made in house
Test: HTRF assay, disruption of bromodomain/histone peptide interaction
Format: binding
Conditions: LE = 1.4(−log(IC50)/N), BRD4(BD1)
Experimental: HTRF assays were performed in white 384 Well Small Volume™ HiBase Polystyrene Microplates (Greiner) with a total working volume of 20 μL. […] HTRF signals were measured, after a final incubation (overnight at room temperature), using a PHERAstar FS (BMG Labtech) with an excitation filter at 337 nm and fluorescence wavelength measurement at 620 and 665 nm, an integration delay of 60 μs and an integration time of 500 μs. […]
# LE (Ligand Efficiency) per entry

CCn1cnc2c1c(=O)[nH]c(=O)n2Cc1ccc(Cl)cc1; 0.37
CCCCn1c(=O)[nH]c(=O)c2c1ncn2CC; 0.40
CCCCc1c(C)nc2nc(SCc3nc4c(c(=O)[nH]c(=O)n4Cc4ccc(Cl)cc4)n3CC)nn2c1C [Compound 27b]; 0.15
CCn1c(CSc2n[nH]c(N)n2)nc2c1c(=O)[nH]c(=O)n2Cc1ccc(Cl)cc1 [Compound 22a]; 0.17

Continue with the next molecule.
LE (Ligand Efficiency) for CCCCc1c(C)nc2nc(SCc3nc4c(c(=O)[nH]c(=O)n4CCCC)n3CC)nn2c1C [Compound 26b] ?
0.22

====

Target: BRD4(BD1) (Homo sapiens, UniProt O60885)
Construct: a BRD4(BD1) synthetic gene that includes a TEV cleavage site was purchased from LifeTechnology; made in house
Assay: HTRF assay, disruption of bromodomain/histone peptide interaction
Type: binding
Details: HTRF; mean ± SD of three experiments; Table 2; read-out: IC50 μM, effect on BRD4(BD1) activity
# IC50 per entry

Solved entries (count: 2):
CCn1c(CO)nc2c1c(=O)[nH]c(=O)n2Cc1ccccc1 [Compound 18c]; > 100 µM
CCCCc1c(C)nc2nc(SCc3nc4c(c(=O)[nH]c(=O)n4Cc4ccc(Cl)cc4)n3CC(C)C)nn2c1C [Compound 28a]; > 100 µM

IC50 for CCn1c(CO)nc2c1c(=O)[nH]c(=O)n2Cc1ccc(Cl)cc1 [Compound 19a] ?
93.3 µM

IC50 for CCn1cnc2c1c(=O)[nH]c(=O)n2Cc1ccc(Cl)cc1 [Compound 7a] ?
2.6 µM

IC50 for CCCCc1c(C)nc2nc(SCc3nc4c(c(=O)[nH]c(=O)n4CCCC)n3CC)nn2c1C [Compound 26b] ?
5 µM

IC50 for O=c1[nH]c(=O)n(Cc2ccc(Cl)cc2)c2nc[nH]c12 [Compound 4a] ?
> 100 µM

IC50 for CCCCn1c(=O)[nH]c(=O)c2c1nc(CO)n2CCC [Compound 18b] ?
> 100 µM

IC50 for CCCCn1c(=O)[nH]c(=O)c2c1nc(CSc1nc3ccccc3[nH]1)n2CC [Compound 22b] ?
> 100 µM

IC50 for Nc1nc2nc[nH]c2c(=O)[nH]1 [Compound 1a] ?
> 100 µM

IC50 for Cn1cnc2[nH]c(=O)[nH]c(=O)c21 [Compound 2c] ?
> 100 µM

IC50 for CCn1c(Br)nc2[nH]c(=O)[nH]c(=O)c21 [Compound 12a] ?
> 100 µM

====

Biological target: BRD4(BD2) (Homo sapiens, UniProt O60885)
Construct: purchased BPS Bioscience
Test: HTRF bromodomain selectivity profile
Type: binding
Conditions: Table 3 selectivity profile
# IC50 per entry

Solved entries (count: 2):
CCCCc1c(C)nc2nc(SCc3nc4c(c(=O)[nH]c(=O)n4CCCC)n3CC)nn2c1C [Compound 26b]; > 100 µM
CCn1c(CSc2nc3nc(C)cc(C)n3n2)nc2c1c(=O)[nH]c(=O)n2Cc1ccc(Cl)cc1 [Compound 25a]; > 100 µM

Continue with the next compound.
IC50 for CCc1cc(CC)n2nc(SCc3nc4c(c(=O)[nH]c(=O)n4Cc4ccc(Cl)cc4)n3CC)nc2n1 [Compound 26a] ?
> 100 µM

====

# IC50 per entry
Target: BRD4(BD1) (Homo sapiens, UniProt O60885)
Construct: a BRD4(BD1) synthetic gene that includes a TEV cleavage site was purchased from LifeTechnology; made in house
Test: HTRF assay, disruption of bromodomain/histone peptide interaction
Format: binding
Settings: HTRF; mean ± SD of three experiments; Table 2; read-out: IC50 μM, effect on BRD4(BD1) activity

Solved entries (count: 2):
CCCCn1c(=O)[nH]c(=O)c2c1nc(CSc1cc3ccccc3[nH]1)n2CC [Compound 23b]; > 100 µM
CCCCn1c(=O)[nH]c(=O)c2c1nc(CSc1nc3nc(CC)cc(CC)n3n1)n2CC [Compound 25b]; 46.6 µM

Continue with the next compound.
IC50 for CCCCn1c(=O)[nH]c(=O)c2[nH]c(CO)nc21 [Compound 17a, 3-Butyl-8-hydroxymethylxanthine] ?
> 100 µM
